System: SN12C renal
Assay Info: NCI tumour cell line growth inhibition, 48 h
# GI50 per record follows
Test Readout: GI50

INSERT INTO measurements (compound, meas_value) VALUES
  ('CCOC(=O)C1=C(C)NC(=O)NC1CN1C(=O)c2ccccc2C1=O (stereo not drawn)', '> 100 µM'),
  ('COC(=O)c1cc2oc(/C=C3/SC(=S)N(N)C3=O)cc2n1Cc1ccccc1', '12 µM'),
  ('NC1CCCCC1N.O=C1C=C/C(=C(/c2ccc(O)c(Br)c2)c2ccccc2S(=O)(=O)[O-])C=C1Br.O=C1C=C/C(=C(/c2ccc(O)c(Br)c2)c2ccccc2S(=O)(=O)[O-])C=C1Br.[Pt+4]', '3.59 µM');

----------
System: CCRF-CEM leukemia
Assay Info: NCI tumour cell line growth inhibition, 48 h
Here, each record is paired with measured log10 of TGI data.
Test Readout: log10 of TGI (log10 of the value in µM)

INSERT INTO assay_data (entry_smiles, target_desc, meas_value) VALUES
  ('CC(=O)c1cc2c(s1)C(=O)c1sccc1C2=O', 'CCRF-CEM leukemia', -1.04),
  ('O=C1c2cccnc2C(=O)c2c1c(C(=O)OCCN1CCCCC1)c1ccccn21', 'CCRF-CEM leukemia', 0.70),
  ('CN(C)CC(=O)Nc1ccc2ncnc(Nc3ccc(Oc4cccc(C(F)(F)F)c4)c(Cl)c3)c2c1', 'CCRF-CEM leukemia', 1.02),
  ('CC(=O)CC/C=C(\C)[C@H](O)[C@H](C)C(=O)O[C@H]1C[C@H](C)C=C2C=C[C@@]3(C)O[C@@H](O)CC(=O)[C@]3(C)[C@H]21', 'CCRF-CEM leukemia', 0.68),
  ('CN(C)CCCSc1ccccc1NC1=C(Cl)C(=O)C(Nc2ccccc2SCCCN(C)C)=C(Cl)C1=O', 'CCRF-CEM leukemia', 0.62);

----------
System: UACC-62 melanoma
Assay Info: NCI tumour cell line growth inhibition, 48 h
TGI by entry:
Test Readout: TGI

INSERT INTO measurements (compound, test_readout, meas_value) VALUES
  ('O=C1CC(c2ccccc2)Cc2nc3ccc(Br)cc3cc21 (stereo unspecified)', 'TGI', '> 100 µM'),
  ('O=C1C(=C([O-])c2ccccc2)C(=O)c2ccccc21.O=C1C(=C([O-])c2ccccc2)C(=O)c2ccccc21.[Mn+2]', 'TGI', '> 100 µM'),
  ('O=C(c1ccccc1Cl)n1oc2ccccc2c1=O', 'TGI', '> 100 µM'),
  ('CC(NCc1c(O)ccc2ccc(=O)oc12)C(=O)O (stereo unspecified)', 'TGI', '> 100 µM'),
  ('COc1ccc2c(=O)cc(-c3ccc(OC)c(OC)c3OC)oc2c1', 'TGI', '> 100 µM'),
  ('CC(=O)O[C@H]1CCN2C(=O)C=CC(OCc3ccccc3)C12 (stereo partly specified)', 'TGI', '> 100 µM'),
  ('Nc1ccc(O)c2c1C(=O)c1c(N)ccc(O)c1C2=O', 'TGI', '> 100 µM'),
  ('CC12CCC(=O)N1c1cncnc1N2 (stereo unspecified)', 'TGI', '> 10 µM'),
  ('CCn1c2ccccc2c(=O)c2c(OC)ccc(OC)c21', 'TGI', '> 100 µM'),
  ('COc1cc2c(c(O)c1OC)C(=O)[C@@H]1CCC(=O)N1C2c1ccccc1 (stereo partly specified)', 'TGI', '> 100 µM'),
  ('C[Si](C)(C)c1ccc(-c2c3ccc(-c4cc(Br)cc(Br)c4)nc3nc3nc(-c4cc(Br)cc(Br)c4)ccc23)cc1', 'TGI', '> 100 µM');
